B1: Azoarcus group I ribozyme (parent)
chain: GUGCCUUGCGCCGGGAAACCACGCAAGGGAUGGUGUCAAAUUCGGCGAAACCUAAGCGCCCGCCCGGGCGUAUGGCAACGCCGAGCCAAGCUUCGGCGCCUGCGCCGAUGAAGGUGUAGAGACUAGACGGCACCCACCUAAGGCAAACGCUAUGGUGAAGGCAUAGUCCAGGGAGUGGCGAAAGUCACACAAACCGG

Variants of: B1
Assay: reverse-splicing fitness (ratio to wild type); higher = more active; in vitro selection; Mg2+ level not given
# thresholds on reverse-splicing fitness define classes: low end: < 0.005; middle: ≥ 0.005 and < 0.01; high end: ≥ 0.01

# example entries with known answers
A111G A145G C150U C169U U176C	high end
C82A A111C A120U A145U C150G C169A U176G	low end
A111G A120U A145G C150G C169U U176C	middle
C82G A111G A145U C150G C169U U176C	high end
C82A A111U A120C A145C C150U C169U U176A	high end
C82A A120G A145C C150G C169U U176G	low end
C82A A145C C169A	middle
C82U A111G A145U C150A	high end

Entry C82G A111C A120G A145U belongs to which category?
high end

Exam item: assign C82G A120G A145U C150U C169U U176A to the correct category.
high end

Hey, just so you know, these numbers are from the RNAGym collection of RNA variant scans (doi:10.1093/molbev/msab373).
